Where these numbers come from: patent US11739078B2

target.or.test.system: UniProt:O95819
Sequence (O95819 whole entry): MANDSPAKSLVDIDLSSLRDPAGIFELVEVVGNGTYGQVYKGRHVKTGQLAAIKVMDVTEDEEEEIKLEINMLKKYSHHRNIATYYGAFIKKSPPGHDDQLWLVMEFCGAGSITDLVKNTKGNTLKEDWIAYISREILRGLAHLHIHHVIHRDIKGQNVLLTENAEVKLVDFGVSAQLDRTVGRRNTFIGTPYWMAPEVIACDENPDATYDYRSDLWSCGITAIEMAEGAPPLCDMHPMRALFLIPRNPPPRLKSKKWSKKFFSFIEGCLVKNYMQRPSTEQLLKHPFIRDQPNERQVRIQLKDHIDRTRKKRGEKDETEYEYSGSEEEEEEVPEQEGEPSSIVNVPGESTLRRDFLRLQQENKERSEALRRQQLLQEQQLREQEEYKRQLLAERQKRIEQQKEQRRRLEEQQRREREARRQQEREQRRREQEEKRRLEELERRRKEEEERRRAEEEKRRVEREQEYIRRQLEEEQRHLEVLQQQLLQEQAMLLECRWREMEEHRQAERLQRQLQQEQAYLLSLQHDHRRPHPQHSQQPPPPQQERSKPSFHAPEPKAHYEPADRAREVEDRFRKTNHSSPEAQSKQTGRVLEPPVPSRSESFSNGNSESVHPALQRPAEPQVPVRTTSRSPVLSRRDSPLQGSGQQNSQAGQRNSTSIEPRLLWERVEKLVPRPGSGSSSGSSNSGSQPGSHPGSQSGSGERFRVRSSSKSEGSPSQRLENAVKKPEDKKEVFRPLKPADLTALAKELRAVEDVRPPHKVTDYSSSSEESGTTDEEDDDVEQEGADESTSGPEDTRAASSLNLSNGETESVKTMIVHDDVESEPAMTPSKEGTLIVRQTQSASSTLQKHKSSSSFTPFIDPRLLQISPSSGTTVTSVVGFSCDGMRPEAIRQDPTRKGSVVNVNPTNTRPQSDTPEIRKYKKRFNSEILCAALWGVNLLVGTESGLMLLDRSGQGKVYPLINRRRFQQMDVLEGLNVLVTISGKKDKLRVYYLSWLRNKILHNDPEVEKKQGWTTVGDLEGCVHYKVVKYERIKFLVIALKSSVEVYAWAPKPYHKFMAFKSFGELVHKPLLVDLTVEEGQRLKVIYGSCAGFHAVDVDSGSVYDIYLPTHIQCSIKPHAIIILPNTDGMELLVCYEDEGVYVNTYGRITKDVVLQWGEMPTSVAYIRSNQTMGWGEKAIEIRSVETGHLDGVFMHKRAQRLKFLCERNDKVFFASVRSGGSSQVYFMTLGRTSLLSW
Task for the reader: assign each of the following compounds its reported pIC50.
Answers are plain numbers, as −log10 of the molar value.

Some solved entries appear below for comparison.
| compound | pIC50 |
| --- | --- |
| O=C(Nc1ccccc1F)c1ccc(-c2c(-c3cccnc3)ncn2C2CCCC2)o1 | 6.95 |
| O=C(Nc1c(O)cncc1F)c1ccc(-c2c(-c3ccc(F)cc3)ncn2C2COCC2F)o1 (stereo not shown) | 5.51 |

# batch: return pIC50 for each of the 2 compounds below
1. O=C(Nc1ccc(Br)cc1)c1ccc(-c2c(-c3ccc(F)cc3)ncn2C2CCCC2)o1
2. O=C(Nc1cc(F)ccc1F)c1ccc(-c2c(-c3ccc(F)cc3)ncn2C2CCCC2)o1

*A*
1: 6.36; 2: 7.61

* * *

target.or.test.system: TNIK (Homo sapiens (Human), UniProt Q9UKE5)
Sequence (Q9UKE5 whole entry): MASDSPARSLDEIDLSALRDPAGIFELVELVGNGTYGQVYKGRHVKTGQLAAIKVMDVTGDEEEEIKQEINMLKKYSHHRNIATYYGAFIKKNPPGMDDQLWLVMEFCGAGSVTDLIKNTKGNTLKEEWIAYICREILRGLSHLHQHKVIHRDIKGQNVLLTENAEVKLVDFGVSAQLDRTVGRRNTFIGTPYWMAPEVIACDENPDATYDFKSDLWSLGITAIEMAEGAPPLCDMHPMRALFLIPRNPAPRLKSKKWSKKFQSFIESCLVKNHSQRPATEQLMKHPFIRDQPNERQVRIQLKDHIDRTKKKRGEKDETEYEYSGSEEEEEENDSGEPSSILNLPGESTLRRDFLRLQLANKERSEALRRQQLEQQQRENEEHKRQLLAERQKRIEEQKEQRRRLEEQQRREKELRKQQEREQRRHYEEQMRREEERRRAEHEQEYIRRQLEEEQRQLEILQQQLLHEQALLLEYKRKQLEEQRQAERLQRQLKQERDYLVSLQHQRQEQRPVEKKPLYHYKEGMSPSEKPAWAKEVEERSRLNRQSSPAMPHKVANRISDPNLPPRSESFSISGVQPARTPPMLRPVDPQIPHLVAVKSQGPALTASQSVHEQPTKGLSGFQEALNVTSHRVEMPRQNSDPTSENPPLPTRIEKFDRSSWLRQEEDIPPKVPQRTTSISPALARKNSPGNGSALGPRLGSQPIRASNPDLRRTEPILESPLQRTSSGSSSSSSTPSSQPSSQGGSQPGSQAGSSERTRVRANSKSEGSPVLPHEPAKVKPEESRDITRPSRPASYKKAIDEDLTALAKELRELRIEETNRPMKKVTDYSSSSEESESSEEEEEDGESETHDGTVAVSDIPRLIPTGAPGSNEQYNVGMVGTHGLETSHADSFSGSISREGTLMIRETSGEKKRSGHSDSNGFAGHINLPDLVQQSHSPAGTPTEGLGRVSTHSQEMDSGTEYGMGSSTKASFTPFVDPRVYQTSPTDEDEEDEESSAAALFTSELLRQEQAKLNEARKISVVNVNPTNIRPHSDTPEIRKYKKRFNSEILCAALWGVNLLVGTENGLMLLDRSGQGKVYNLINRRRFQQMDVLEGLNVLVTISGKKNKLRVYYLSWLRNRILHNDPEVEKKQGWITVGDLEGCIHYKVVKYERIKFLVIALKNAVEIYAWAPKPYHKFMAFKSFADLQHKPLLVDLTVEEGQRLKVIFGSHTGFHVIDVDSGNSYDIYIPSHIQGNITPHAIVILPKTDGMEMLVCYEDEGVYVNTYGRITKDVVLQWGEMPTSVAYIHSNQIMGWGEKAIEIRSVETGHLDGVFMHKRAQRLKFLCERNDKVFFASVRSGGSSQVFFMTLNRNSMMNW
test.summary: TNIK enzymatic assay (radiometric kinase inhibition)
Format: biochemical
study.conditions: read-out: TNIK_IC50
experimental.readout: pIC50
Numbers only, as −log10 of the molar value.

Some solved entries appear below for comparison.
| compound | pIC50 |
| --- | --- |
| COc1cnccc1NC(=O)c1ccc(-c2c(-c3ccc(F)cc3)ncn2C2CCOC2)o1 (centres unmarked) | 8.38 |
| COc1ccccc1NC(=O)c1ccc(-c2c(-c3ccc(F)cc3)ncn2C2CCCCC2)o1 | 7.80 |
| COC(=O)c1ccccc1NC(=O)c1ccc(-c2c(-c3ccc(F)cc3)ncn2C2CCCC2)o1 | 8.29 |

# batch: return pIC50 for each of the 5 compounds below
1. O=C(Nc1ccccc1Cl)c1ccc(-c2c(-c3ccc(F)cc3)ncn2C2CCCCC2)o1
2. O=C(Nc1ccccc1F)c1ccc(-c2c(-c3ccc(F)cc3)ncn2CC2CCNC2)o1 (centres unmarked)
3. CCc1cccc(NC(=O)c2ccc(-c3c(-c4ccc(F)cc4)ncn3C3CCCCC3)o2)c1
4. Cc1cc(C)c(NC(=O)c2ccc(-c3c(-c4ccc(F)cc4)ncn3C3CCCCC3)o2)c(C)c1
5. O=C(Nc1ccccc1F)c1ccc(-c2c(-c3ccc(F)cc3)ncn2CC2CCCN2)o1 (centres unmarked)

*A*
1. 7.62
2. 6.80
3. 6.49
4. 6.03
5. 5.07

* * *

target.or.test.system: TNIK (Homo sapiens (Human))
test.summary: TNIK enzymatic assay (radiometric kinase inhibition)
Type: biochemical
study.conditions: read-out: TNIK_IC50
Task for the reader: assign each of the following compounds its reported IC50.
Note to self: number, then unit, no commentary.

Some solved entries appear below for comparison.
| smiles.data | IC50 |
| --- | --- |
| Cc1ccc(NC(=O)c2ccc(-c3c(-c4ccc(F)cc4)ncn3C3CCCC3)o2)c(C)c1 | 12 nM |
| O=C(Nc1ccc(-c2c(-c3ccc(F)cc3)ncn2C2CCCC2)o1)c1ccccc1F | 480 nM |

# batch: return IC50 for each of the 2 compounds below
1. COc1ccc(NC(=O)c2ccc(-c3c(-c4ccc(F)cc4)ncn3C3CCCCC3)o2)cc1
2. COc1cccc(NC(=O)c2ccc(-c3c(-c4ccc(C)cc4)ncn3C3CCCCC3)o2)c1

*A*
60 nM
9320 nM

* * *

target.or.test.system: TNIK (Homo sapiens (Human), UniProt Q9UKE5)
test.summary: TNIK enzymatic assay (radiometric kinase inhibition)
Assay type: biochemical
study.conditions: read-out: TNIK_IC50
experimental.readout: pIC50
Numbers only, as −log10 of the molar value.

| compound | target.or.test.system | pIC50 |
| --- | --- | --- |
| O=C(Nc1ccc(F)cc1)c1ccc(-c2c(-c3ccc(F)cc3)ncn2C2CCCC2)o1 | TNIK (Homo sapiens (Human), UniProt Q9UKE5) | 7.26 |
| CCOC(=O)c1cccc(NC(=O)c2ccc(-c3c(-c4ccc(F)cc4)ncn3C3CCCC3)o2)c1 | TNIK (Homo sapiens (Human), UniProt Q9UKE5) | 6.32 |
| Cc1cc(NC(=O)c2ccc(-c3c(-c4ccc(F)cc4)ncn3C3COCC3F)o2)c(F)cn1 (centres unmarked) | TNIK (Homo sapiens (Human), UniProt Q9UKE5) | 7.12 |

# batch: return pIC50 for each of the 4 compounds below
1. O=C(Nc1ccccc1Br)c1ccc(-c2c(-c3ccc(F)cc3)ncn2C2CCCC2)o1
2. Cc1ccc(NC(=O)c2ccc(-c3c(-c4ccc(F)cc4)ncn3C3CCCC3)o2)cc1Cl
3. O=C(Nc1c(O)cncc1F)c1ccc(-c2c(-c3ccc(F)cc3)ncn2C2COCC2(F)F)o1 (centres unmarked)
4. CC(=O)c1ccc(NC(=O)c2ccc(-c3c(-c4ccc(F)cc4)ncn3C3CCCC3)o2)cc1

*A*
1. 7.92
2. 7.02
3. 6.50
4. 7.96
